# Target Of Assay: FGFR1 (UniProt P11362)
# Sequence (P11362 whole entry, looked up): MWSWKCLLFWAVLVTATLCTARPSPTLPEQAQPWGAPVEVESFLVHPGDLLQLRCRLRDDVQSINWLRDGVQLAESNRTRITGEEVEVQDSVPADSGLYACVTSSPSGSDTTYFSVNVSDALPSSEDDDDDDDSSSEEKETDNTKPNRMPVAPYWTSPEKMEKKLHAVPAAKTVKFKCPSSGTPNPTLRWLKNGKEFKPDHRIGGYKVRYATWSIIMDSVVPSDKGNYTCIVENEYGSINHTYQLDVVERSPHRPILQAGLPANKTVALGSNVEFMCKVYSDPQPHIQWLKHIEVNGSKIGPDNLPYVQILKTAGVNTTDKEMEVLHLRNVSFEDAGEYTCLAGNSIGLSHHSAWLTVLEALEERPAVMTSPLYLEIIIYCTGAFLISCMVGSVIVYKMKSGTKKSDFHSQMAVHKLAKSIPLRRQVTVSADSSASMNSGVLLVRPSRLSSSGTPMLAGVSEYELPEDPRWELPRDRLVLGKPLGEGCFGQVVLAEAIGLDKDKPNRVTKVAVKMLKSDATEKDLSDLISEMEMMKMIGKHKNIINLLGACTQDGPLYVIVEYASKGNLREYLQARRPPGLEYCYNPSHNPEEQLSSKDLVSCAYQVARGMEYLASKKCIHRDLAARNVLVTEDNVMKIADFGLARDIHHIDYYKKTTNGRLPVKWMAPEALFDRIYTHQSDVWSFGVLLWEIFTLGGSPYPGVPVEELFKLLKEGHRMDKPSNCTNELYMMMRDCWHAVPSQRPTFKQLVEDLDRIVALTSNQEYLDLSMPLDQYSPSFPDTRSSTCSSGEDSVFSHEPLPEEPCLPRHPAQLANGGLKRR
# Experimental Details: phosphorylation enrichment, bacterial display (enrichment ratio); higher = better substrate or ligand; peptides without Tyr show the background;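 further: 11-residue human phosphosite peptides and single-mutation variants displayed on the E. coli surface, counted by deep sequencing, each peptide's frequency after selection divided by its frequency in the unselected input library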;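 further: frequency after pTyr selection over input frequency; kinase dosed for 20-30% of maximal phosphorylation in three min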

Primary Sequence	phosphorylation enrichment
WKESWYSMRKM [FGB_Y475_G472E]	0.513
RSSKTYLKTRS [LPL_Y329_M328T]	0.499
RCFVFYFSFLL [PTEN_Y177_R173C_YF]	0.506

---

# Target Of Assay: FGFR3 (UniProt P22607)
# Sequence (P22607 whole entry, looked up): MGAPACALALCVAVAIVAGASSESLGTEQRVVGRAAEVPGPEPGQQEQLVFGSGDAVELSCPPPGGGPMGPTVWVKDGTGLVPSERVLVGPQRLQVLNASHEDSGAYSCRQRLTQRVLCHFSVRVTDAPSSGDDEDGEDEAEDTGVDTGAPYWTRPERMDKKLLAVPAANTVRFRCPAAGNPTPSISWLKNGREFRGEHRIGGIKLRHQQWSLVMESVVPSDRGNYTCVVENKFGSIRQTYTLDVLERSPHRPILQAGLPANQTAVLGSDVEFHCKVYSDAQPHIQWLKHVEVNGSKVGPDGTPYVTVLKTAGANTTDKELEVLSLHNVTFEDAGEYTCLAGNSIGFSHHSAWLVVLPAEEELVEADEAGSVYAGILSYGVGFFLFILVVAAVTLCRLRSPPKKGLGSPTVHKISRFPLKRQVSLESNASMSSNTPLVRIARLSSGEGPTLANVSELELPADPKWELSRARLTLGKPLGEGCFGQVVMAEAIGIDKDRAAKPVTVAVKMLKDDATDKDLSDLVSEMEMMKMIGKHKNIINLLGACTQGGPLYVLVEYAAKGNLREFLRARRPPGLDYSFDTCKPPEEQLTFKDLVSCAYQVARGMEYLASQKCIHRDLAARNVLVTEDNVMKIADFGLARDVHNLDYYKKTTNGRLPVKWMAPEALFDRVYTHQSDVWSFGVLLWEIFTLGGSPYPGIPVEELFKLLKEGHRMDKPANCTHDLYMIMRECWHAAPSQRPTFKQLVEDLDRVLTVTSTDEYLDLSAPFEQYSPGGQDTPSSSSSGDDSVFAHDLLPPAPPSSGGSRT
# Experimental Details: phosphorylation enrichment, bacterial display (enrichment ratio); higher = better substrate or ligand; peptides without Tyr show the background

Primary Sequence	Target Of Assay	phosphorylation enrichment
CYCSWYRGWAP [TIMP3_Y195_G190C]	FGFR3 (UniProt P22607)	1.02
WHHTFYNEPRV [ACTA1_Y93_L96P]	FGFR3 (UniProt P22607)	0.561
YTFTSYYMHWV [IGHV1-46_Y51]	FGFR3 (UniProt P22607)	2.89

---

# Target Of Assay: FGFR1 (UniProt P11362)
# Experimental Details: phosphorylation enrichment, bacterial display (enrichment ratio); higher = better substrate or ligand; peptides without Tyr show the background
Measurement Label: phosphorylation enrichment

Primary Sequence	Measurement Label	Quantitative Result
GNLLIYTDFGK [HGD_Y166_E168D]	phosphorylation enrichment	0.682
SHGKQYRVPSD [HHIPL2_Y395_R394Q]	phosphorylation enrichment	0.344
EALDFYGEVKT [PTEN_Y155_R159K]	phosphorylation enrichment	0.53
PSDSGYSYETI [MAP1B_Y1921]	phosphorylation enrichment	0.627
KQINDYVEKGT [SERPINA1_Y184]	phosphorylation enrichment	0.402
KPYRVYCDMNT [FGB_Y269]	phosphorylation enrichment	0.51
RLVTRYIFNRE [HLA-DQB1_Y62_Y58L_YF]	phosphorylation enrichment	0.579
VTVLDYDKIGK [SYT1_Y365]	phosphorylation enrichment	0.505
SVTGTYSPALN [TP53_Y126_C124G]	phosphorylation enrichment	0.394
GHLYAYNWISI [BEST1_Y227_D228N]	phosphorylation enrichment	3.67
PTTKTYFPHFH [HBA1_Y43_D48H]	phosphorylation enrichment	0.602
LAIEWYVVVCK [RHO_Y136_R135W]	phosphorylation enrichment	1.45
AALKLYHVSDS [VIL1_Y256]	phosphorylation enrichment	0.511
ADCRYYAFPQM [GAMT_Y223]	phosphorylation enrichment	11
YSMGCYEISLG [HMGCL_Y198]	phosphorylation enrichment	0.69
PTTKTYFRHFD [HBA1_Y43_P45R]	phosphorylation enrichment	0.65
NDFGNYSNQSS [HNRNPA1_Y318_N319S]	phosphorylation enrichment	0.461
GADDSYYTVRS [ZAP70_Y492_A495V]	phosphorylation enrichment	5.51
AEPDIYQEKLS [USP54_Y1233]	phosphorylation enrichment	0.457
GPQSLYNGLVA [UCP2_Y79_R76Q]	phosphorylation enrichment	0.493
SIKDKYVTALC [KCNH2_Y611_Y616C]	phosphorylation enrichment	0.376
KKFVPYFDLFM [IPO5_Y530_E525K_YF]	phosphorylation enrichment	0.79
GAVDTYCRHNF [HLA-DRB1_Y107_A102G_YF]	phosphorylation enrichment	0.427
PLDGEYFTLQI [TP53_Y327]	phosphorylation enrichment	9.82
IRSGIYYKPES [L2HGDH_Y102_H98R]	phosphorylation enrichment	0.745
NACGLYYKLHN [GATA2_Y376]	phosphorylation enrichment	1.43
YYHCTYKKRMI [CLEC12A_Y242]	phosphorylation enrichment	4.79
GYAGKYIAMVM [CYP19A1_Y441_C437Y]	phosphorylation enrichment	0.521
GSTLSYFGLAT [P2RX7_Y343_A348T]	phosphorylation enrichment	1.36
QRRYVYYYSYL [PTEN_Y176]	phosphorylation enrichment	6.01
IVEFAYNDKAV [PUM3_Y259_I264V_YF]	phosphorylation enrichment	0.59
GLGGGYGGASG [KRT8_Y54]	phosphorylation enrichment	0.398
KHGGNYVPAPK [OSCP1_Y237]	phosphorylation enrichment	0.512
DPASAYADEVK [ETNPPL_Y189_S185P]	phosphorylation enrichment	0.473
FIAVGYVDDTQ [HLA-A_Y51]	phosphorylation enrichment	0.505
DALDNYVVRGV [PCCA_Y473_I475V]	phosphorylation enrichment	0.458
WQQQSYLDSGS [CTNNB1_Y30_I35S]	phosphorylation enrichment	0.561
LAETSYVKVLE [MAGEA1_Y276]	phosphorylation enrichment	0.53

---

# Target Of Assay: Fes (UniProt P07332)
# Sequence (P07332 whole entry, looked up): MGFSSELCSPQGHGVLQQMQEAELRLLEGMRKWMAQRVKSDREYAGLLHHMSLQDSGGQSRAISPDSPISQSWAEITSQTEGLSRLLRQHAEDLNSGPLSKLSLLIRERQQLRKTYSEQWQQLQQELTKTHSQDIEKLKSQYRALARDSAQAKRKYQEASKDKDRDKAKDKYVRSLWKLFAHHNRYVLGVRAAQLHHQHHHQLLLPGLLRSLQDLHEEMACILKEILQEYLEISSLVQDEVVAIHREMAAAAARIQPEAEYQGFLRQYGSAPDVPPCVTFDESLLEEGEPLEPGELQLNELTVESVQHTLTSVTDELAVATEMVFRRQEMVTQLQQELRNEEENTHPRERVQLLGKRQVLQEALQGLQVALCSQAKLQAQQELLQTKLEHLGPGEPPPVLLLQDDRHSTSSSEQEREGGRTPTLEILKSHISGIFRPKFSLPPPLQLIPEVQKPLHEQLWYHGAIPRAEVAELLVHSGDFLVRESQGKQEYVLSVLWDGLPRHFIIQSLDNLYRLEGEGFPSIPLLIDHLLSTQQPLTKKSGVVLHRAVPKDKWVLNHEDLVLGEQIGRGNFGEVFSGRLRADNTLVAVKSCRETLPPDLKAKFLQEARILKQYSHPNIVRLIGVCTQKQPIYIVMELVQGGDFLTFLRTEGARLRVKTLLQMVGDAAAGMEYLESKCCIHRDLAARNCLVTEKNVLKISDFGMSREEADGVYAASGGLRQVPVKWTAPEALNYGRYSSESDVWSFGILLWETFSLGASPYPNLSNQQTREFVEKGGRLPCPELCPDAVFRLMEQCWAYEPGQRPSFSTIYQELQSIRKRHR
# Experimental Details: phosphorylation enrichment, bacterial display (enrichment ratio); higher = better substrate or ligand; peptides without Tyr show the background
Entries and their measured phosphorylation enrichment follow.

Primary Sequence	phosphorylation enrichment
GVIRHYVVCST [BTK_Y334]	1.25
DDKQPYEKKAE [HMGB1_Y144_A149E]	1.04
AKRKNYAPVAM [CFAP47_Y557]	0.521
PLDGEYFTLQI [TP53_Y327]	1.47
SKLTIYDGRPS [MTM1_Y277_A279G]	0.674
HNLDFYKQTTN [FGFR3_Y648_K650Q_YF]	1.35
GSQERYFELVE [TSC2_Y407]	1.27
ACEVLYNIAFM [NCF2_Y125]	1.53
TFVKSYTIHFS [F5_Y2153_M2148T_YF]	1.29
QPGTDYKIFLF [FN1_Y1970_YF]	2.44
LRVGFYESDVM [A2M_Y708]	3.12
RPSELYFSKIG [SMG1_Y2253_YF]	0.671
IENKLYGTSDP [RET_Y1062_M1064T]	0.869
VERRVYAEDPY [PCCA_Y401_C398R]	0.962
SIKDKYVTVLY [KCNH2_Y611_A614V]	0.903
RPYVYYYSYLL [PTEN_Y177_R173P]	1.6
LKGIRYLTSGL [PIGA_Y82_R77L]	1.09
PSPTRYSLSPS [RANBP2_Y785]	0.886
EKLQKYFRKNP [EHHADH_Y682_Q685K_YF]	0.895
QTLEAYIRCNK [SPAST_Y604_W607C]	1.36
RHRSGYVLIAM [EFR3A_Y73]	1.37
PSDSGYSFETI [MAP1B_Y1921_YF]	1.25
ESDFTYSSSFE [SRPK2_Y427_YF]	1.09
FTNRSYDLDYD [MYC_Y12_N11S]	1.13
HSVVQYVGGVM [FGGY_Y136_L134V]	0.911
DLVRPYVHKIL [SF3B1_Y570]	0.743
TPLSAYQIPRT [GAB2_Y324]	0.539
YGSSSSGGAGG [RPA2_Y14_Y14S]	0.535
KPNMNYDKLSQ [FLI1_Y332_R337Q]	0.578
QQLVAYFSKHT [SRC_Y232_A237T_YF]	1.09
THPFLYLTLEI [MLH1_Y293_S295T]	2
FLKDVYVDSKD [NDUFAF4_Y69]	0.983
THPFLYLSLEI [MLH1_Y293]	1.52
FKIFRYTLNDN [FN1_Y1975_L1974R_YF]	1.03
IVKAFYVRARA [AIPL1_Y268_YF]	1.07
ISHVAYCVLGK [TRRAP_Y892_R893C]	1.49
LKSEMYQKLFK [RGS13_Y146_L150F]	0.993

---

# Target Of Assay: Fyn (UniProt P06241)
# Sequence (P06241 whole entry, looked up): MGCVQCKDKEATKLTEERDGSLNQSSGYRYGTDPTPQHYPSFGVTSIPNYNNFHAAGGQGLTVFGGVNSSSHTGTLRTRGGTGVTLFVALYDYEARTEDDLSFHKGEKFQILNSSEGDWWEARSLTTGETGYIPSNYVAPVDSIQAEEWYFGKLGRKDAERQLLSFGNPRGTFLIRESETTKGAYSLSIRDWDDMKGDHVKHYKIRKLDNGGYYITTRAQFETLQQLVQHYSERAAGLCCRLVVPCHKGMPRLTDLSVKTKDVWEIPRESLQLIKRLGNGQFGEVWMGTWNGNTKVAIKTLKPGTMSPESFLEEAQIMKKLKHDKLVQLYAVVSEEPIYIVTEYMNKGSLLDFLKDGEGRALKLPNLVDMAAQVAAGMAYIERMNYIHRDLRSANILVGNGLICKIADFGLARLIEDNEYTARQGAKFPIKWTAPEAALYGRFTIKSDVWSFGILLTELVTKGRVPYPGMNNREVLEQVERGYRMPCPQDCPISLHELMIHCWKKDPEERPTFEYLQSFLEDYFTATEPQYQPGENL
# Experimental Details: phosphorylation enrichment, bacterial display (enrichment ratio); higher = better substrate or ligand; peptides without Tyr show the background

Primary Sequence	Target Of Assay	phosphorylation enrichment
SQAPGYSFTAA [CYCS_Y47_G42S_YF]	Fyn (UniProt P06241)	0.443
FKDGQYWIRGR [ACSF3_Y466]	Fyn (UniProt P06241)	0.448
DAAEDYAEGVR [DHODH_Y194]	Fyn (UniProt P06241)	0.542
RLLRGYDQSAY [HLA-C_Y137]	Fyn (UniProt P06241)	0.465
DLVSEYQQYQD [TUBB3_Y422]	Fyn (UniProt P06241)	0.706
LIDGFYRLTAD [JAK2_Y373_YF]	Fyn (UniProt P06241)	0.698
NDTAGYFVIGG [SEL1L3_Y399_I401V]	Fyn (UniProt P06241)	0.848
ICANKYMVKSC [RPL10_Y75]	Fyn (UniProt P06241)	0.406
LHAALYKRKLL [TTLL5_Y542_E543K]	Fyn (UniProt P06241)	0.464
QSSALYEDRFL [ASS1_Y83_YF]	Fyn (UniProt P06241)	1.48
KYVKMCDNHQL [MYO9A_Y203_Y203C]	Fyn (UniProt P06241)	0.407
WQQQSYLDFGI [CTNNB1_Y30_S33F]	Fyn (UniProt P06241)	0.524
